Ref: patent US8058243B2

# Test system: murine neural precursor cells (neurosphere cultures)
# Assay notes: HTS of LOPAC library against secondary neurosphere cultures, MTT proliferation assay at 3 μM, day 7 (z score, P value)
# Assay type: cell-based, mouse
# Measurement context: LOPAC library screen, 3 μM, MTT, secondary neurosphere cultures, day 7
Counter-ions that a name gives are not always drawn.
Quantity measured: Z Score

Recorded results for 2 molecules are shown here.
[
  {
    "Molecule": "CC(C)COCC(CN(Cc1ccccc1)c1ccccc1)N1CCCC1 (centres unmarked) [Bepridil (28), Bepridil, reference compound]",
    "Z Score": "−2.655"
  },
  {
    "Molecule": "CC(=O)OCC(=O)[C@@]1(O)CC[C@H]2[C@@H]3CCC4=CC(=O)CC[C@]4(C)[C@H]3C(=O)C[C@@]21C [Cortisone 21-acetate]",
    "Z Score": "−2.218"
  }
]

The following molecules each have a reported value; give each one's Z Score.
1. Nc1ncn([C@@H]2O[C@H](CO)[C@@H](O)[C@H]2O)c(=O)n1
2. O=c1c(-c2ccc(O)cc2)coc2cc(O)ccc12
3. OC[C@H]1O[C@@H](n2cnc3c(NC4CCCCC4)ncnc32)[C@H](O)[C@@H]1O
4. C=CCc1ccccc1OCC(O)CNC(C)C (centres unmarked) [Alprenolol hydrochloride]
5. Fc1ccc(C(OCCN2CCN(CCCc3ccccc3)CC2)c2ccc(F)cc2)cc1 [GBR-12909 dihydrochloride]
6. O=C(O)C1=CCNCC1 [Isoguvacine hydrochloride]

OUT:
1. −1.398
2. −2.931
3. −2.883
4. −2.143
5. −10.9
6. −2.22
